biological target: Acetylcholinesterase (Electrophorus electricus)
Sequence (O42275 whole entry): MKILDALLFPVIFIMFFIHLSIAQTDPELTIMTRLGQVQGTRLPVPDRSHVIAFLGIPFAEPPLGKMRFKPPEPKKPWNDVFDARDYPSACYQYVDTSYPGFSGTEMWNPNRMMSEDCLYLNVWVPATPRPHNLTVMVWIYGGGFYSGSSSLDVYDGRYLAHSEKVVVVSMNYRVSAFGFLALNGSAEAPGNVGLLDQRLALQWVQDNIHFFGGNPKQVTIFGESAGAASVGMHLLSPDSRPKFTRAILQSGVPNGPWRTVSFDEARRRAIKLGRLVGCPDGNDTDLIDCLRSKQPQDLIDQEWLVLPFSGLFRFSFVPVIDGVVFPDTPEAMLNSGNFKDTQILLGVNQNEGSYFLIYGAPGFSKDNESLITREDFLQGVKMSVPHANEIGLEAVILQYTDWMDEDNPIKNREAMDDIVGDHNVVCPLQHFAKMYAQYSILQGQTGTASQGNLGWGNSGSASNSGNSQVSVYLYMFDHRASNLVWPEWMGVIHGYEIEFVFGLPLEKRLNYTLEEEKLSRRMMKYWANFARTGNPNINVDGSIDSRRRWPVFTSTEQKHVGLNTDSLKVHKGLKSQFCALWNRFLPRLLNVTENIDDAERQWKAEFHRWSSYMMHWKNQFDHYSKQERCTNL
readout.kind: IC50 (nM)
One number for each entry, in nM.

[[record]]
entry_smiles = "CN(C)c1ccc(-c2cc(=O)c3ccc(OCC(=O)NCCN4CCCC4)cc3o2)cc1"
value_units = "nM"
observed_value = 3130

[[record]]
entry_smiles = "CN(C)CCCNC(=O)COc1ccc2c(=O)cc(-c3ccc(N(C)C)cc3)oc2c1"
value_units = "nM"
observed_value = 11900

[[record]]
entry_smiles = "CN(C)c1ccc(-c2cc(=O)c3ccc(OCC(=O)NCCCNc4c5c(nc6ccccc46)CCCC5)cc3o2)cc1"
value_units = "nM"
observed_value = 769

[[record]]
entry_smiles = "CN(C)c1ccc(-c2cc(=O)c3ccc(OCC(=O)NCCCCCCCCNc4c5c(nc6ccccc46)CCCC5)cc3o2)cc1"
value_units = "nM"
observed_value = 94.6

[[record]]
entry_smiles = "CN(C)c1ccc(-c2cc(=O)c3ccc(OCC(=O)NCCCCCCNc4c5c(nc6ccccc46)CCCC5)cc3o2)cc1"
value_units = "nM"
observed_value = 59.6

[[record]]
entry_smiles = "CN(C)c1ccc(-c2cc(=O)c3ccc(OCC(=O)NCCCCNc4c5c(nc6ccccc46)CCCC5)cc3o2)cc1"
value_units = "nM"
observed_value = 1460

[[record]]
entry_smiles = "CN(C)c1ccc(-c2cc(=O)c3ccc(OCC(=O)NCCCCCCCCN4CCCC4)cc3o2)cc1"
value_units = "nM"
observed_value = 2300


Continue with the molecule presented below.
[Q] Return value of IC50 for input CN(C)c1ccc(-c2cc(=O)c3ccc(OCC(=O)NCCCCCCN4CCCC4)cc3o2)cc1 , no commentary.
[A] 3200

====

target: Cholinesterase (Equus caballus, UniProt P81908)
Sequence (P81908 whole entry): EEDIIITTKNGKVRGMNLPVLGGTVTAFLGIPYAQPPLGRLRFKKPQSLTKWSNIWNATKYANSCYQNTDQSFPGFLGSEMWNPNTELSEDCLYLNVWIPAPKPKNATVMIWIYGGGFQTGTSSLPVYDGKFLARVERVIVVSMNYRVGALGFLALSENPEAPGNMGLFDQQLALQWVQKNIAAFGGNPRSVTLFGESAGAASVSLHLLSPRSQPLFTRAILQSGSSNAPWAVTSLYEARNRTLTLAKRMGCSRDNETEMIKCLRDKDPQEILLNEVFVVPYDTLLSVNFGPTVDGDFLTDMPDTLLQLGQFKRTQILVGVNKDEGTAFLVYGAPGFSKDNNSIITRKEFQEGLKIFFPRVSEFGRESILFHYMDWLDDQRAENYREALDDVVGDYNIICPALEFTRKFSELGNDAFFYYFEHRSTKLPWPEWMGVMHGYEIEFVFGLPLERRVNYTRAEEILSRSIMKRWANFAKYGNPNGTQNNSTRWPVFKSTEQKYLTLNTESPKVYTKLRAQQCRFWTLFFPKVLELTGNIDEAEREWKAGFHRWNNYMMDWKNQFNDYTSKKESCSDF
Quick rule for you: IC50 under 300 nM gets Fulfilled, anything else gets Not fulfilled.

[[record]]
entry_smiles = "CN(C)c1ccc(-c2cc(=O)c3ccc(OCC(=O)NCCNc4c5c(nc6ccccc46)CCCC5)cc3o2)cc1"
class_label = "Not fulfilled"

[[record]]
entry_smiles = "CN(C)c1ccc(-c2cc(=O)c3ccc(OCC(=O)NCCCCNc4c5c(nc6ccccc46)CCCC5)cc3o2)cc1"
class_label = "Not fulfilled"

[[record]]
entry_smiles = "CN(C)c1ccc(-c2cc(=O)c3ccc(OCC(=O)NCCCCCCCCNc4c5c(nc6ccccc46)CCCC5)cc3o2)cc1"
class_label = "Fulfilled"


[Q] Is 300 nM strictly greater than the compound's reported IC50? compound: CN(C)c1ccc(-c2cc(=O)c3ccc(OCC(=O)NCCCCN4CCCC4)cc3o2)cc1
[A] Not fulfilled

[Q] Is 300 nM strictly greater than the compound's reported IC50? compound: CN(C)c1ccc(-c2cc(=O)c3ccc(OCC(=O)NCCCNc4c5c(nc6ccccc46)CCCC5)cc3o2)cc1
[A] Fulfilled

[Q] Is 300 nM strictly greater than the compound's reported IC50? compound: CN(C)CCNC(=O)COc1ccc2c(=O)cc(-c3ccc(N(C)C)cc3)oc2c1
[A] Not fulfilled

[Q] Is 300 nM strictly greater than the compound's reported IC50? compound: CN(C)c1ccc(-c2cc(=O)c3ccc(OCC(=O)NCCN4CCCC4)cc3o2)cc1
[A] Not fulfilled

[Q] Is 300 nM strictly greater than the compound's reported IC50? compound: CN(C)c1ccc(-c2cc(=O)c3ccc(OCC(=O)NCCCCCCCCN4CCCC4)cc3o2)cc1
[A] Fulfilled

[Q] Is 300 nM strictly greater than the compound's reported IC50? compound: CN(C)c1ccc(-c2cc(=O)c3ccc(OCC(=O)NCCCCCCNc4c5c(nc6ccccc46)CCCC5)cc3o2)cc1
[A] Fulfilled

[Q] Is 300 nM strictly greater than the compound's reported IC50? compound: CN(C)c1ccc(-c2cc(=O)c3ccc(OCC(=O)NCCCCCCN4CCCC4)cc3o2)cc1
[A] Not fulfilled

[Q] Is 300 nM strictly greater than the compound's reported IC50? compound: CN(C)c1ccc(-c2cc(=O)c3ccc(OCC(=O)NCCCN4CCCC4)cc3o2)cc1
[A] Not fulfilled

[Q] Is 300 nM strictly greater than the compound's reported IC50? compound: CN(C)CCCNC(=O)COc1ccc2c(=O)cc(-c3ccc(N(C)C)cc3)oc2c1
[A] Not fulfilled

====

Target or system Acetylcholinesterase (Electrophorus electricus, UniProt O42275); recorded quantity pIC50.
Give bare numbers, as −log10 of the molar value.

Respectfully, I request pIC50 for each entry included below.
1. CN(C)CCNC(=O)COc1ccc2c(=O)cc(-c3ccc(N(C)C)cc3)oc2c1
2. CN(C)c1ccc(-c2cc(=O)c3ccc(OCC(=O)NCCCN4CCCC4)cc3o2)cc1
3. CN(C)c1ccc(-c2cc(=O)c3ccc(OCC(=O)NCCNc4c5c(nc6ccccc46)CCCC5)cc3o2)cc1

[A]
1: 5.28; 2: 5.12; 3: 6.38

[Q] Return value of pIC50 for input CN(C)c1ccc(-c2cc(=O)c3ccc(OCC(=O)NCCCCN4CCCC4)cc3o2)cc1 , no commentary.
[A] 5.32

====

molecular target: Amyloid-beta precursor protein (Homo sapiens, UniProt P05067)
Sequence (P05067 whole entry): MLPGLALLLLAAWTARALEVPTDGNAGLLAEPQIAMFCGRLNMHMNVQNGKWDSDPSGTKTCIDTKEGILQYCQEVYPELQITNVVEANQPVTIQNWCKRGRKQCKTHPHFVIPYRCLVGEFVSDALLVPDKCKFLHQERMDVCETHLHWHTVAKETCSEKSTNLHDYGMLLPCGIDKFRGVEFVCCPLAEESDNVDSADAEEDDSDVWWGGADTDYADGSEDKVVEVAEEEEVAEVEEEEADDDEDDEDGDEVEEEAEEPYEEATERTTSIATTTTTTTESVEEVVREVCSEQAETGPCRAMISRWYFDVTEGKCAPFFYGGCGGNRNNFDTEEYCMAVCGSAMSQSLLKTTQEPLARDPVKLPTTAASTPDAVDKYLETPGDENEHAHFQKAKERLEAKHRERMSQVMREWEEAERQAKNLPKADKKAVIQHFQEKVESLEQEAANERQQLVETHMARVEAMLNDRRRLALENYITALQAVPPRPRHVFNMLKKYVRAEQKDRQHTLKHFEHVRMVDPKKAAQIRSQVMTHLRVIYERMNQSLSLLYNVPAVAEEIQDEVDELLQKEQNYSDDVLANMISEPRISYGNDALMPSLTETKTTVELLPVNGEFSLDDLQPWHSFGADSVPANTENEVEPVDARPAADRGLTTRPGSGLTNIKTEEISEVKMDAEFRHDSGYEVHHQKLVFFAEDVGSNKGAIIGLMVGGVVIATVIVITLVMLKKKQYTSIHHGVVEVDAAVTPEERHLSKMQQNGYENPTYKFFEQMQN
readout.kind: pIC50
Numbers only, as −log10 of the molar value.

[Q] Return value of pIC50 for input CN(C)c1ccc(-c2cc(=O)c3ccc(OCC(=O)NCCCCCCNc4c5c(nc6ccccc46)CCCC5)cc3o2)cc1 , no commentary.
[A] 5.02

Source of measurements: ChEMBL document CHEMBL3864125
